Origin of the recorded values: paper PMC5515508

Bridge positions count the residues as written; N and C are the ends. Square brackets hold non-standard residues; d marks the D form. Peptide text beside a SMILES is read from it. R5 = C=CCCC[C@@](C)(N)C(=O)O
Entries with reported Kd on MDM2 (1-125) (Homo sapiens)
Sequence (Q00987 1-125): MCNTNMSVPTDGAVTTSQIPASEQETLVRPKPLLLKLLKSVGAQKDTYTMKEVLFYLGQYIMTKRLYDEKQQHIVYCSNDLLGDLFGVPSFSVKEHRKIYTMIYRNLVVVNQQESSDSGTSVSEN

>  <compound>
CC(=O)N[C@H](C(=O)N[C@@H](CO)C(=O)N[C@@H](Cc1ccccc1)C(=O)N[C@]1(C)CCCC=CCCC[C@](C)(C(=O)N[C@@H](CC(C)C)C(=O)N[C@@H](CC(C)C)C(=O)N2CCC[C@H]2C(=O)N[C@@H](CCC(=O)O)C(=O)N[C@@H](CC(N)=O)C(=O)N[C@@H](Cc2ccc(O)cc2)C(N)=O)NC(=O)[C@H](Cc2c[nH]c3ccccc23)NC(=O)[C@H](Cc2ccc(O)cc2)NC(=O)[C@H](CCC(=O)O)NC1=O)[C@@H](C)O [YS-2] (Ac-TSF[R5]EYW[R5]LLPENY-NH2; staple 4-8)

>  <Kd / nM>
7.4

$$$$
>  <compound>
CC(=O)N[C@H](C(=O)N[C@@H](CO)C(=O)N[C@@H](Cc1ccccc1)C(=O)N[C@]1(C)CCCC=CCCC[C@](C)(C(=O)N[C@@H](CC(C)C)C(=O)N[C@@H](CC(C)C)C(=O)N2CCC[C@H]2C(=O)N[C@@H](CCC(=O)O)C(=O)N[C@@H](CC(N)=O)C(=O)N[C@@H](Cc2ccccc2)C(N)=O)NC(=O)[C@H](Cc2c[nH]c3ccccc23)NC(=O)[C@H](Cc2ccc(O)cc2)NC(=O)[C@H](CCC(=O)O)NC1=O)[C@@H](C)O [YS-1] (Ac-TSF[R5]EYW[R5]LLPENF-NH2; staple 4-8)

>  <Kd / nM>
9.9

$$$$
>  <compound>
CC(=O)N[C@H](C(=O)N[C@@H](CO)C(=O)N[C@@H](Cc1ccccc1)C(=O)N[C@]1(C)CCCC=CCCC[C@](C)(C(=O)N[C@@H](CC(C)C)C(=O)N[C@@H](CC(C)C)C(=O)N[C@@H](CO)C(=O)N[C@@H](CCC(=O)O)C(=O)N[C@@H](CC(N)=O)C(=O)N[C@@H](Cc2ccc(O)cc2)C(N)=O)NC(=O)[C@H](Cc2c[nH]c3ccccc23)NC(=O)[C@H](Cc2ccc(O)cc2)NC(=O)[C@H](CCC(=O)O)NC1=O)[C@@H](C)O [YS-6] (Ac-TSF[R5]EYW[R5]LLSENY-NH2; staple 4-8)

>  <Kd / nM>
8.8

$$$$
>  <compound>
CC(=O)N[C@H](C(=O)N[C@@H](CO)C(=O)N[C@@H](Cc1ccccc1)C(=O)N[C@]1(C)CCCC=CCCC[C@](C)(C(=O)N[C@@H](CC(C)C)C(=O)N[C@@H](CC(C)C)C(=O)N[C@@H](CO)C(=O)N[C@@H](CCC(=O)O)C(=O)N[C@@H](CC(N)=O)C(=O)N[C@@H](Cc2ccccc2)C(N)=O)NC(=O)[C@H](Cc2c[nH]c3ccccc23)NC(=O)[C@H](Cc2ccc(O)cc2)NC(=O)[C@H](CCC(=O)O)NC1=O)[C@@H](C)O [YS-5] (Ac-TSF[R5]EYW[R5]LLSENF-NH2; staple 4-8)

>  <Kd / nM>
11.6

$$$$
>  <compound>
CC(=O)N[C@H](C(=O)N[C@@H](CO)C(=O)N[C@@H](Cc1ccccc1)C(=O)N[C@]1(C)CCCC=CCCC[C@](C)(C(=O)N[C@@H](CC(C)C)C(=O)N[C@@H](CC(C)C)C(=O)N2CCC[C@H]2C(=O)N[C@@H](CCC(=O)O)C(=O)N[C@@H](CC(N)=O)C(=O)N[C@@H](C)C(N)=O)NC(=O)[C@H](Cc2c[nH]c3ccccc23)NC(=O)[C@H](Cc2ccc(O)cc2)NC(=O)[C@H](CCC(=O)O)NC1=O)[C@@H](C)O [YS-4] (Ac-TSF[R5]EYW[R5]LLPENA-NH2; staple 4-8)

>  <Kd / nM>
27.7

$$$$
>  <compound>
CC(=O)N[C@H](C(=O)N[C@@H](CO)C(=O)N[C@@H](Cc1ccccc1)C(=O)N[C@]1(C)CCCC=CCCC[C@](C)(C(=O)N[C@@H](CC(C)C)C(=O)N[C@@H](CC(C)C)C(=O)N2CCC[C@H]2C(=O)N[C@@H](CCC(=O)O)C(=O)N[C@@H](CC(N)=O)C(N)=O)NC(=O)[C@H](Cc2c[nH]c3ccccc23)NC(=O)[C@H](Cc2ccc(O)cc2)NC(=O)[C@H](CCC(=O)O)NC1=O)[C@@H](C)O [YS-3] (Ac-TSF[R5]EYW[R5]LLPEN-NH2; staple 4-8)

>  <Kd / nM>
36.1

$$$$
